Experiment: folding stability dG unfold (combined trypsin and chymotrypsin); higher = more stable
Each entry gets Condition not met if its folding stability dG unfold stays under 0.9 kcal/mol, and Condition met if its folding stability dG unfold is 0.9 kcal/mol or above.

sequence_input="SAGGSAGGSAGGSGPVPVTIKSVTTYPEKDVYKVETVPATPEPITITLSPEELSDVVILSAGGSAGGSAGGS [r4_51_JUSTAS]" group_label="Condition not met"
sequence_input="SAGGMEEIEVEFEFTLPDGRTLRLTVRVRRFDGGIVVEVDVGGEEEEEREFMEEVAREIAERIAEEESAGGS [r8_416_TrMRF]" group_label="Condition met"
sequence_input="SAGGSAIWIPADEIRELAKEPGLEVEKEPQPDGMLHFTIKNPKNGKRITIVVWDPENGWWHIMPIPSAGGSA [r15_442_TrROS]" group_label="Condition met"
sequence_input="SAGGSAGGSVKPGQEIEVRVELTYDEETGELTIRREVVNKETGELIAEEEITISLEDLPPELLSAGGSAGGS [r12_145_TrROS_Hall]" group_label="Condition met"
sequence_input="SKPDAPKIVELLRELFPDLEITSVSYDPETGTYTVTFPDGVVAEVHVDPNGNVHIVLRTPTSERTFTLPVSA [r9_304_TrMRF]" group_label="Condition met"
sequence_input="SAIPINLPPGDKVKITFRNPDGSRMEIEFDPENGKWKVKMRPNDGKKQEQTIPAGNLDDLPPGVYSIEPVSA [r9_1110_TrROS]" group_label="Condition met"
sequence_input="SAGKKIKLELYFEENGLKVEVEFDEETGVITVKVELKDGTRIEAKFELLPDGTLKLEIKIEKVKPGEKPSAG [r5_766_TrROS_Hall]" group_label="Condition met"
sequence_input="SAGGSAGGSAGYVVIPLDIDAEPGATVEITLPNGEKIEAIVEDHPDGLRSVRVGDGVILVPGSAGGSAGGSA [r18_372_TrMRF]" group_label="Condition not met"
sequence_input="SAGGSAGGSAGGSMKLNITVTLPDGTPITLTFPVDKIEEILKEAGLENISPELITKIEPISAGGSAGGSAGG [r7_745_JUSTAS]" group_label="Condition met"
sequence_input="SAGGSAGGSAMKIELTVPPGEEAELEARAKALAEAEGVEVVSVSKSPEGTYTMTVLNTVPPESAGGSAGGSA [r18_351_JUSTAS]" group_label="Condition not met"
sequence_input="SAGGMTPVPVKLLSEESSSVSTLPNGETVTTTPSLAYSPLGFYVLTTTTTYPATPVTTTTSTVVPLSVSAGG [r19_320_JUSTAS]" group_label="Condition not met"
sequence_input="SAETVTFRVGDVEIVARRLPDGYVVVTEKVPEEYPEAELVLSLVRVYPDGTVEVESRLYRIDPETGVIGSAG [r14_724_TrMRF]" group_label="Condition met"
sequence_input="SAGGSMTLEELKNMTVEELRELLGEDAEVTVDEETGTITIRVPGKEVTIEVDEETGEVKIVEVKPVSAGGSA [r2_470_TrROS_Hall]" group_label="Condition met"
sequence_input="SPGMEPIREWELKLPDPDGEDKDLEVEMYRMPEGNYYVDISIPNGKKIPFPMPPDEPITPDDIRNFIKKFSA [r9_616_TrROS]" group_label="Condition not met"
sequence_input="SANVRRREIRIPAKDMPPNQIRDALRDLGFPPSKIENLDIERHKGNMITVKIYWTFENGQKQKIELHIPSAG [r14_30_TrROS]" group_label="Condition met"
sequence_input="SAGGSAGGYIMIPPGAEIDVNPENGKIKIKFRNPDNGEEEKITFDVPPGVKIHMWDNWIMIELPSAGGSAGG [r6_804_TrROS]" group_label="Condition met"

Where these numbers come from: the supplement of paper PMC12764529
